# assayed.system: T1, IIB-Fc:ALK7-Fc heterodimer (human ActRIIB ECD-Fc paired with human ALK7 ECD-Fc) (human, UniProt Q13705-1 19-134; Q8NER5-1 25-113)
# T1 construct: activin receptor type IIB (ActRIIB) extracellular domain, human, aa 19-134 of NP_001097.2; activin receptor-like kinase 7 (ALK7) extracellular domain, human, aa 25-113 of NP_660302.2; copies: 1 + 1
# T1 sequence (Q13705 19-134, chain 1 of 2): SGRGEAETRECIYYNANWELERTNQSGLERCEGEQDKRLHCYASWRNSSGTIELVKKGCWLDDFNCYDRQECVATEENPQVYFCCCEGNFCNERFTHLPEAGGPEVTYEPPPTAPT
# T1 sequence (Q8NER5 25-113, chain 2 of 2): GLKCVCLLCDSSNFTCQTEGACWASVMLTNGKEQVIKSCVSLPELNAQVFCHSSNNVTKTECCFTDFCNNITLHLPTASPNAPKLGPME
# assay.info: SPR; same experiment as a1 (Biacore 8K, 37 °C, receptor dimers captured by anti-human Fc, HBS-EP+ with 350 mM NaCl added and 0.5 mg/mL BSA) but fitted with a bivalent analyte model (bold cells of Table 1); the first binding step is the one considered
# condition.description: both partners purified
value.type: kon (M⁻¹ s⁻¹)

1 = GDF3 (ligand, human, UniProt Q9NR23 251-364, looked up, source: bought: R&D Systems) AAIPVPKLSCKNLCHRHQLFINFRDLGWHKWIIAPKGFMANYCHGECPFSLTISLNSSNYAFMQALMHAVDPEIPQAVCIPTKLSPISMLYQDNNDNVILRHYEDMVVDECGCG
2 = BMP9 (ligand, human, UniProt Q9UK05 320-429, looked up, source: generated in house) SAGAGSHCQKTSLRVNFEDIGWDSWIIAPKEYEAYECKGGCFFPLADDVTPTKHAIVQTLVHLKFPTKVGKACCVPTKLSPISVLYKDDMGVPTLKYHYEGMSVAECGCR
Exercise: Two entries are listed, 1 and 2 . Which one carries the higher kon? Indicate which entry you chose by stating its label.
Solution: 2
(2: 7.1e+06 M⁻¹ s⁻¹, 1: 1.1e+06 M⁻¹ s⁻¹)

All figures here come from paper PMC8443706.
